Where do the numbers come from? From patent US11814680B2.

Exercise: state measured Pearson Correlcation coefficient miR44a-5p for each of the substances provided.
tested on: p16-3MR mice; assay: Pearson correlation of serum miRNA levels to miR-34a-5p and miR-27a-3p; design: species or system mouse; settings: correlation of serum level to miR44a-5p (so in the source)
The answer should be a number; do not append a unit.

# Pearson Correlcation coefficient miR44a-5p lookup, item mmu-miR-6395: circulating microRNA, SEQ ID No. 12 (CUGGCCCUCUCUGCCCUGUUUA; expressed or natural sequence; listed as Homo sapiens)
0.61

May I ask what Pearson Correlcation coefficient miR44a-5p has been recorded for mmu-miR-29a-3p: circulating microRNA, SEQ ID No. 22 (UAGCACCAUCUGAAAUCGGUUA; expressed or natural sequence; listed as Homo sapiens) ?
0.74

Looking for the measured Pearson Correlcation coefficient miR44a-5p of mmu-miR-10a-3p: circulating microRNA, SEQ ID No. 16 (CAAAUUCGUAUCUAGGGGAAUA; expressed or natural sequence; listed as Homo sapiens) , can you help?
0.52

I'd like to know its Pearson Correlcation coefficient miR44a-5p. The substance in question is mmu-miR-30b-5p: circulating microRNA, SEQ ID No. 9 (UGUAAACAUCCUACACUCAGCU; expressed or natural sequence; listed as Homo sapiens)
0.70

Return reported Pearson Correlcation coefficient miR44a-5p; argument: miR-24-3p: circulating microRNA biomarker, SEQ ID No. 21 (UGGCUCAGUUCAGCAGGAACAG; expressed or natural sequence; listed as Homo sapiens)
0.61

// query Pearson Correlcation coefficient miR44a-5p value for entry mmu-miR-3058-3p: circulating microRNA, SEQ ID No. 8 (UUCCUGUCAGCCGUGGGUGCC; expressed or natural sequence; listed as Homo sapiens)
0.80

Fill in the blank: the reported Pearson Correlcation coefficient miR44a-5p of miR-151-5p: circulating microRNA biomarker, SEQ ID No. 17 (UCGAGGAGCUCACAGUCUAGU; expressed or natural sequence; listed as Homo sapiens) is ____.
0.73

// lookup Pearson Correlcation coefficient miR44a-5p for mmu-miR-339-5p: circulating microRNA, SEQ ID No. 10 (UCCCUGUCCUCCAGGAGCUCACG; expressed or natural sequence; listed as Homo sapiens)
0.64

Form field: reported Pearson Correlcation coefficient miR44a-5p of mmu-miR-652-3p: circulating microRNA, SEQ ID No. 13 (AAUGGCGCCACUAGGGUUGUG; expressed or natural sequence; listed as Homo sapiens)
0.77

Requested field: Pearson Correlcation coefficient miR44a-5p. Item: mmu-miR-191-5p: circulating microRNA, SEQ ID No. 18 (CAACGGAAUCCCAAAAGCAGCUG; expressed or natural sequence; listed as Homo sapiens)
0.32

What measured Pearson Correlcation coefficient miR44a-5p goes with mmu-miR-223-3p: circulating microRNA, SEQ ID No. 19 (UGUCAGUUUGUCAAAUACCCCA; expressed or natural sequence; listed as Homo sapiens) ?
0.55

* * *

tested on: p16-3MR mice; assay: Pearson correlation of serum miRNA levels to miR-34a-5p and miR-27a-3p; set-up: species or system mouse; details: correlation of serum level to miR-27a-3p
measured.quantity: Pearson Correlcation coefficient miR-27a-3p
Simply state the number, no unit and no words.

GET /values?readout=Pearson Correlcation coefficient miR-27a-3p&item= mmu-miR-223-3p: circulating microRNA, SEQ ID No. 19 (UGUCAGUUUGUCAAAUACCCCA; expressed or natural sequence; listed as Homo sapiens)
0.83

Query (substance): mmu-miR-29a-3p: circulating microRNA, SEQ ID No. 22 (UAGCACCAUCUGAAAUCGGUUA; expressed or natural sequence; listed as Homo sapiens) ; field requested: Pearson Correlcation coefficient miR-27a-3p
0.74

For mmu-miR-3058-3p: circulating microRNA, SEQ ID No. 8 (UUCCUGUCAGCCGUGGGUGCC; expressed or natural sequence; listed as Homo sapiens) , what is its reported Pearson Correlcation coefficient miR-27a-3p?
0.54

Form field: reported Pearson Correlcation coefficient miR-27a-3p of miR-151-5p: circulating microRNA biomarker, SEQ ID No. 17 (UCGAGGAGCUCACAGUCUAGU; expressed or natural sequence; listed as Homo sapiens)
0.37

Reported Pearson Correlcation coefficient miR-27a-3p, substance miR-24-3p: circulating microRNA biomarker, SEQ ID No. 21 (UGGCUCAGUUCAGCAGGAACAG; expressed or natural sequence; listed as Homo sapiens) : ____
0.89

Field request: Pearson Correlcation coefficient miR-27a-3p | item: mmu-miR-191-5p: circulating microRNA, SEQ ID No. 18 (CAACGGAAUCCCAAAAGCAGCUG; expressed or natural sequence; listed as Homo sapiens)
0.81

May I ask what Pearson Correlcation coefficient miR-27a-3p has been recorded for mmu-miR-652-3p: circulating microRNA, SEQ ID No. 13 (AAUGGCGCCACUAGGGUUGUG; expressed or natural sequence; listed as Homo sapiens) ?
0.66

So what's the measured Pearson Correlcation coefficient miR-27a-3p for this one? mmu-miR-339-5p: circulating microRNA, SEQ ID No. 10 (UCCCUGUCCUCCAGGAGCUCACG; expressed or natural sequence; listed as Homo sapiens)
0.87

I'd like to know its Pearson Correlcation coefficient miR-27a-3p. The substance in question is mmu-miR-30b-5p: circulating microRNA, SEQ ID No. 9 (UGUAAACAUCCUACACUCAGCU; expressed or natural sequence; listed as Homo sapiens)
0.65

Would you kindly share the measured Pearson Correlcation coefficient miR-27a-3p for mmu-miR-10a-3p: circulating microRNA, SEQ ID No. 16 (CAAAUUCGUAUCUAGGGGAAUA; expressed or natural sequence; listed as Homo sapiens) ?
0.90

Returns the measured Pearson Correlcation coefficient miR-27a-3p for the input substance. Input: mmu-miR-6395: circulating microRNA, SEQ ID No. 12 (CUGGCCCUCUCUGCCCUGUUUA; expressed or natural sequence; listed as Homo sapiens)
0.81
